Listing of entries alongside the reported IC50 at 4 days.
- test-protocol: MTT cytotoxicity assay, KB3-1 parent cell line
- Type: cell-based
- particulars: human, KB3-1 cells (parent cell line), KB3-1 parent cells, continuous exposure four days
Respond with the bare value in µM.

compound	units	reading
COc1cc2c(cc1OC(=O)c1ccccc1)c(=O)n(CCN(C)C)c1c3cc4c(cc3ncc21)OCO4 [Example 1]	µM	0.002
COc1cc2c(cc1OC(C)=O)c(=O)n(CCN(C)C)c1c3cc4c(cc3ncc21)OCO4 [Example 3]	µM	0.007
COc1cc2c(cc1OC(=O)N(C)C)c(=O)n(CCN(C)C)c1c3cc4c(cc3ncc21)OCO4 [Example 9]	µM	0.4

Task item: For the compound COc1cc2c(cc1OC(=O)c1ccccc1C)c(=O)n(CCN(C)C)c1c3cc4c(cc3ncc21)OCO4 [Example 2] , what IC50 at 4 days is on record?
Reply: 0.04
